Biological target: Ssy1p (Saccharomyces cerevisiae, UniProt Q03770)
Sequence (Q03770 whole entry): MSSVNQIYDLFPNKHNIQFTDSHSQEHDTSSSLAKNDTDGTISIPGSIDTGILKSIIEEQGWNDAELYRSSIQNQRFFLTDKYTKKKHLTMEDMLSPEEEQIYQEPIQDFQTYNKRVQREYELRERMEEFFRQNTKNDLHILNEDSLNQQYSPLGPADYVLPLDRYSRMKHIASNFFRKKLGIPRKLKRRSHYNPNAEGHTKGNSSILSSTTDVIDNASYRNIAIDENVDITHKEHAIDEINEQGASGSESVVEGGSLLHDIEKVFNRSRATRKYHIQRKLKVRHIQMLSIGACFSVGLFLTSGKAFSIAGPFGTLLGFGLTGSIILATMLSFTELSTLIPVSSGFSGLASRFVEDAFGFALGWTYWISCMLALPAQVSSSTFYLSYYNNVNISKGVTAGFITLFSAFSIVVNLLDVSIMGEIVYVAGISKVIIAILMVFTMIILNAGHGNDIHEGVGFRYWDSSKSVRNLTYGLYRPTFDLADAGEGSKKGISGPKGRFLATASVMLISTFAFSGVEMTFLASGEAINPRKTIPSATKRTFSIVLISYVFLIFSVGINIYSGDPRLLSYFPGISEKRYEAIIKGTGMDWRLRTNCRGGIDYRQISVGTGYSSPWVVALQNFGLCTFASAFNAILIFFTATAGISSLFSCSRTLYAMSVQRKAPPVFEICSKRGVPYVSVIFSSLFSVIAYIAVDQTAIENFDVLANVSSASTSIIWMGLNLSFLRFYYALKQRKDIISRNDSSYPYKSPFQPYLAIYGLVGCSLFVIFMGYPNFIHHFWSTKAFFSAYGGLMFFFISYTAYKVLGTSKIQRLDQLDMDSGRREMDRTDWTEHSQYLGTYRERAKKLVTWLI
Test: Ssy1p signaling measured as Stp1p processing
Type: cell-based
Conditions: EC50 for sensing of extracellular amino acid, experiment 5; strain M5568 (ura3 gap1Δ bap2Δ tat1Δ bap3Δ agp1::URA3); grown in SD; Leuc 1 μmol/g DW
Measure name: EC50 (µM)
Give the quantity in µM, number only.

Req: Query the reported EC50 for Ssy1p (Saccharomyces cerevisiae, UniProt Q03770); item: CC(C)C[C@H](N)C(=O)O [Leu, leucine]
Resp: 15

====

Target: Ssy1p (Saccharomyces cerevisiae, UniProt Q03770)
Test: Ssy1p signaling measured as Stp1p processing
Type: cell-based
Conditions: EC50 for sensing of extracellular amino acid, experiment 1; strain M5447 (ura3 gap1Δ); grown in SD; Leuc 0.5 μmol/g DW; mean of triplicate
Measure name: pEC50
The meaning of pEC50 here: minus log10 of the concentration in molar units.

Req: Looking for the measured pEC50 of CC(C)C[C@H](N)C(=O)O , can you help?
Resp: 4.89
